Assay: Cytotoxicity in murine macrophage cells (resazurin)
Type: cell-based
Details: mouse, Raw 264.7 macrophage cells, Raw 264.7 murine macrophage cells, triplicate
Here the recorded IC50 at 72 h is given for each entry.
A number alone suffices; assume µg/mL.

Worked examples follow.
{"molecule": "COC(=O)CC1C(C)(C)OC(=O)C=C2OC3(C)C(C(OC(C)=O)C(OC(C)=O)C4(C)C(c5ccoc5)CC(=O)C34)C21C (stereo not drawn)", "IC50 at 72 h, µg/mL": 94.1}
{"molecule": "COC(=O)CC1C(C)(C)OC(=O)CC2OC3(C)C4C(=O)CC(c5ccoc5)C4(C)C(OC(C)=O)C(OC(=O)C(C)C)C3C21C (stereo not drawn)", "IC50 at 72 h, µg/mL": 42}

Consider now this further molecule.
Return IC50 at 72 h for the following molecule: CCCCCCCCCCCCCCCCOP(=O)([O-])OCC[N+](C)(C)C [Miltefosine, reference compound]
21

Source listed as paper PMC8196563.
